LogP: recorded values
Experiment: Log P by HPLC on reversed phase, method [a], acidic range (0.1% formic acid)
Assay type: physicochemical
Conditions: LC-UV, 0.1% formic acid in water and acetonitrile

Example cases with answers are listed next.
                               smilesstring  valuemeasured
0  Cc1cnc(C(F)F)c(C(=O)Nc2cnn(C3CCCC3)c2C)c1       2.09^[a]
1  Cc1nn(-c2cccc(F)c2)c(C)c1NC(=O)c1cccnc1C(F)(F)F       2.27^[a]
2  O=C(Nc1cnn(-c2ccc(Br)cc2)c1Br)c1cccnc1C(F)F       2.67^[a]
3  Cc1cccc(-n2ncc(NC(=O)c3cc(C)cnc3C(F)F)c2C(F)(F)F)c1       2.96^[a]
4     CCCCn1ncc(NC(=O)c2cccnc2C(F)F)c1C(C)C       2.18^[a]

So, CCc1ccc(-n2ncc(NC(=O)c3cccnc3C(F)F)c2C(F)(F)F)cc1 ? Its LogP was 3.19^[a]

// recorded LogP for O=C(Nc1cnn(-c2ccc(-c3ccccc3)cc2)c1C(F)(F)F)c1cccnc1C(F)F : 3.59^[a]

Lab book: LogP of N#Cc1c(NC(=O)c2ccc(Cl)nc2C(F)F)cnn1-c1ccccc1 noted as 2.90^[a]

For record Cc1cccc(-n2ncc(NC(=O)c3cccnc3C(F)F)c2C)c1 the listed LogP is 2.11^[a]

Looking up Cc1cnc(C(F)F)c(C(=O)Nc2cnn(C(C)C)c2C2CC2)c1 , I found its LogP recorded as 1.95^[a]

Record Cc1c(NC(=O)c2cccnc2C(F)F)cnn1-c1ccc(Br)cc1 , field LogP: 2.34^[a]

Reported LogP ( CC(C)c1c(NC(=O)c2cccnc2C(F)F)cnn1-c1ccc(Cl)cc1 ) = 2.62^[a]

Quick note, LogP for Cc1ccc(C)c(-n2ncc(NC(=O)c3cccnc3C(F)F)c2C)c1 landed at 2.25^[a]

GET /value?item= O=C(Nc1cnn(-c2cccc(C(F)(F)F)c2)c1C(F)(F)F)c1cccnc1C(F)F &field=LogP returns 3.19^[a]

Lab note: measured LogP of Cc1cccc(-n2ncc(NC(=O)c3ccc(Cl)nc3C(F)F)c2C)c1 was 2.73^[a]

The recorded LogP for CCCc1c(NC(=O)c2cccnc2C(F)F)cnn1-c1ccccc1 is 2.28^[a]

Consider Cc1c(NC(=O)c2ccc(Cl)nc2C(F)F)cnn1C1CCCC1 . Its measured LogP is 2.46^[a]

----------
Test: Log P by HPLC on reversed phase, method [a], acidic range (0.1% formic acid)
Type: physicochemical
Conditions: LC-UV, 0.1% formic acid in water and acetonitrile
The following compounds are shown together with reported LogP values.

                               smilesstring  valuemeasured
0  O=C(Nc1cnn(-c2ccc(Br)cc2)c1-c1ccccc1)c1cccnc1C(F)F       3.10^[a]
1  O=C(Nc1cnn(-c2ccccc2F)c1-c1ccc(Cl)cc1)c1cccnc1C(F)F       2.73^[a]
2  Cc1cccc(-n2ncc(NC(=O)c3cc(C)cnc3C(F)F)c2C)c1       2.35^[a]

Reported LogP for O=C(Nc1cnn(-c2ccc(F)cc2)c1C(F)(F)F)c1cccnc1C(F)F was 2.64^[a]

Measured LogP of O=C(Nc1cnn(-c2ccc(Cl)cc2Cl)c1C(F)(F)F)c1ccc(Br)nc1C(F)F : 3.96^[a]

The reported LogP of the compound Cc1nn(-c2ccccc2)c(Cl)c1NC(=O)c1cccnc1C(F)F was 2.08^[a]

Looking up Cc1cnc(C(F)F)c(C(=O)Nc2cnn(C(C)(C)C)c2C)c1 , I see its LogP listed as 1.90^[a]

Looking up Cc1cnc(C(F)F)c(C(=O)Nc2cnn(-c3ccccc3F)c2C(F)(F)F)c1 , I see its LogP listed as 2.77^[a]

Just so you know, measured LogP for COc1c(NC(=O)c2cccnc2C(F)F)cnn1-c1ccccc1 came out at 1.82^[a]
